Ok so here's the combined literature set: IC50 for Cytochrome P450 2C9 (Homo sapiens).

Request: Recorded IC50 of "C[C@]1(c2cc(NC(=O)c3ccc(C#N)cn3)ccc2F)N=C(N)O[C@H](C2(F)CC2)[C@@H]1F" , please.
Result: ≥ 10 µM

Request: What do you have for "Cc1nc(C)c(-c2csc(NC(=O)Cc3ccc(S(C)(=O)=O)cc3)n2)s1" ?
Result: > 20 µM

Request: Query CCCCOCCOc1ccc(-c2ccc3c(c2)C=C(C(=O)Nc2ccc([S+]([O-])Cc4c(CC)ccnc4C)cc2)CCCN3CC2CCCO2)cc1 (single isomer, unassigned) next
Result: > 50 µM

Request: Moving on to CC1(c2cc(-c3cncnc3)ccc2F)COCC(N)=N1 (centres unmarked)
Result: > 50 µM

Request: Cool, now "Cc1nc(N2CC(c3nc4ccccc4n3C)C2)cc(-n2nc(C)nc2[C@H](C)O)n1"
Result: > 50 µM

Request: Thanks! And "Cc1cncc(Oc2cc(=O)n(C)c(Nc3ccc(I)cc3F)c2C(N)=O)c1" ?
Result: > 10 µM

Request: Okay, and "CO[C@H]1[C@@H](CF)OC(N)=N[C@]1(C)c1cc(NC(=O)c2ccc(F)cn2)ccc1Cl" ?
Result: ≥ 20 µM

Request: Param item: "CNc1ncnc2[nH]cc(C(=O)c3ccc(Nc4cncc(OC)c4)nc3F)c12"
Result: < 5 µM
